System: PmTbr T-box DNA-binding domain (GST fusion);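 also: 200 nM protein in PBS on universal arrays averaged over duplicate arrays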
Sequence: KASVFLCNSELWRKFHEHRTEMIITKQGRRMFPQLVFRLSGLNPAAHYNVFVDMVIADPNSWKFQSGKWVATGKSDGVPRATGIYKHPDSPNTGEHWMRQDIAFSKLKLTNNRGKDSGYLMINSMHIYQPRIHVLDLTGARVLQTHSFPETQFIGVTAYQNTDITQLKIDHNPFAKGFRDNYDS
Experiment: PBM E-score of 8-mer (E-score (dimensionless, -0.5 to 0.5)); higher = stronger binding preference
Details: the construct has about 5 more residues each side
Whole data set: some 33,000 sequences, median “E-score (dimensionless, -0.5 to 0.5)” near -0.049, cut for the highest 2% near 0.37. The list comes from a sample in which the highest values are over-represented; it also holds close analogues and randomly drawn sequences.
Would you please tag the item yes when its PBM E-score of 8-mer is -0.1 or above, and no when it is below?

| residue.codes | category |
| --- | --- |
| CACACCAC | yes |

Kindly determine if PBM E-score of 8-mer recorded for CGTCCCAG is above or exactly -0.1.
no

Next sequence up: GAAAATAA
yes

Next sequence up: CGGAAGGA
no

Next sequence up: ATTAAGTA
no

Next sequence up: CTCACCAA
yes

Next sequence up: GTTGATCA
yes

Next sequence up: CATTCAGG
yes

Next sequence up: AGGACCGG
no

Next sequence up: CACACCAA
yes

Next sequence up: AGATGGAC
no

Next sequence up: ATTTGGTC
no

Next sequence up: AATTCGCT
yes

Next sequence up: GCGGGTTA
yes

Next sequence up: ATTGCACG
yes

---

Tested on: PmTbr T-box DNA-binding domain (GST fusion);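 also: 200 nM protein in PBS on universal arrays averaged over duplicate arrays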
Sequence: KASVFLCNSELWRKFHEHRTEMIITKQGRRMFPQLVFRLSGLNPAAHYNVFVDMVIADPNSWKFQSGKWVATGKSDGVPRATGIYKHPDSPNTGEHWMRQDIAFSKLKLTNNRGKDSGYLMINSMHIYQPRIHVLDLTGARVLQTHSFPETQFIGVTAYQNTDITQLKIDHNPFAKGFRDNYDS
Assay: PBM E-score of 8-mer (E-score (dimensionless, -0.5 to 0.5)); higher = stronger binding preference
Settings: target sequence: T-box / the construct has about 5 more residues each side
In all, about 33,000 sequences were measured (“E-score (dimensionless, -0.5 to 0.5)”: median about -0.049, highest 2% from about 0.37 on). Many of the other results were omitted from the sample, so the highest values are more common in it than they were.
measurement.name: PBM E-score of 8-mer

These solved cases illustrate the format of a correct answer.
| residue.codes | result |
| --- | --- |
| AAGGTGTC | 0.488 |
| CCGGCCCC | -0.24 |
| GAGGTGTA | 0.44 |
| ACGGTGTC | 0.26 |
| CCACCACC | 0.107 |
| ACACCACA | 0.377 |

# get_value(readout='PBM E-score of 8-mer', item= ACACCACG )
0.37

Next sequence up: CTGTCTTC
0.0449

Next sequence up: TGGCTACA
-0.117

Next sequence up: CCACCACA
0.117

Next sequence up: CCACCACG
-0.00839

---

Test system: PmTbr T-box DNA-binding domain (GST fusion);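 also: 200 nM protein in PBS on universal arrays averaged over duplicate arrays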
Sequence: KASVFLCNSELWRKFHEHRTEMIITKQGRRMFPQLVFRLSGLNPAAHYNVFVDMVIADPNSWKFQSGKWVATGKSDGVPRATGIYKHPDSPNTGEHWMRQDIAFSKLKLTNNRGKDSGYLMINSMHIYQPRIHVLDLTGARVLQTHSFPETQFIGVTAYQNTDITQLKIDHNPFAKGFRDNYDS
Experiment: PBM E-score of 8-mer (E-score (dimensionless, -0.5 to 0.5)); Tbr is Tbrain of the sea star Patiria miniata (Pm) or the sea urchin Strongylocentrotus purpuratus (Sp); higher = stronger binding preference
Details: target sequence: T-box / the construct has about 5 more residues each side
The full ranking holds about 33,000 sequences; the median of “E-score (dimensionless, -0.5 to 0.5)” is about -0.049, and the highest 2% start at about 0.37. Many of the other results were omitted from the sample, so the highest values are more common in it than they were.
PBM E-score of 8-mer: recorded values
Lab note: jot down the number only; don't add units.

These solved cases illustrate the format of a correct answer.
| residue.codes | PBM E-score of 8-mer |
| --- | --- |
| GTGAGAAC | 0.44 |
| GCGTGTGA | 0.373 |
| CAGGCTTA | -0.197 |
| GCGAGAAC | 0.375 |
| CTGAGAAA | 0.00608 |
| ACGAGAAC | 0.0117 |
| GCGTGAGA | 0.368 |
| CTAGGTGA | 0.398 |

# returns recorded PBM E-score of 8-mer (system: PmTbr T-box DNA-binding domain (GST fusion)) for CTAGGTCA;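 also: 200 nM protein in PBS on universal arrays averaged over duplicate arrays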
0.00648

Next sequence up: CTGAGAAC
-0.052

Next sequence up: CCGTGTGA
0.335
